Value source: paper PMC5042352

# assay.overview: Stability of the analytes in human plasma at QC levels
# Format: in vitro ADME
# condition.notes: middle QC; four cycles, −40 °C; human plasma; n = 5
test.readout: Freeze–thaw Dev. (%)

Illustrative cases are given below, each with its answer.
>  <compound>
CCC(=O)OCC(=O)[C@@]1(OC(=O)CC)[C@@H](C)C[C@H]2[C@@H]3CCC4=CC(=O)C=C[C@]4(C)[C@@]3(F)[C@@H](O)C[C@@]21C [BDP, betamethasone dipropionate]

>  <Freeze–thaw Dev. (%)>
3.45

$$$$
>  <compound>
C[C@H]1C[C@H]2[C@@H]3CCC4=CC(=O)C=C[C@]4(C)[C@@]3(F)[C@@H](O)C[C@]2(C)[C@@]1(O)C(=O)CO

>  <Freeze–thaw Dev. (%)>
4.88

$$$$
>  <compound>
C[C@H]1C[C@H]2[C@@H]3CCC4=CC(=O)C=C[C@]4(C)[C@@]3(F)[C@@H](O)C[C@]2(C)[C@@]1(O)C(=O)COP(=O)([O-])[O-].[Na+].[Na+] [BSP, betamethasone sodium phosphate]

>  <Freeze–thaw Dev. (%)>
−2.67

$$$$

[I] CCC(=O)O[C@]1(C(=O)CO)[C@@H](C)C[C@H]2[C@@H]3CCC4=CC(=O)C=C[C@]4(C)[C@@]3(F)[C@@H](O)C[C@@]21C [B17P, betamethasone 17-monopropionate]
[II] CCC(=O)OCC(=O)[C@@]1(O)[C@@H](C)C[C@H]2[C@@H]3CCC4=CC(=O)C=C[C@]4(C)[C@@]3(F)[C@@H](O)C[C@@]21C [B21P, betamethasone 21-monopropionate]
Choose between I and II : whose measured Freeze–thaw Dev. (%) value is numerically larger? Answer format: the label of the selected item.
I
(I: 6.62%, II: 1.08%)

###

# assay.overview: Stability of the analytes in human plasma at QC levels
# Assay type: in vitro ADME
# condition.notes: low QC; autosampler r.t., 24 h; n = 5
test.readout: The autosampler MCM ± SD (24h)

Some solved entries appear below for comparison.
>  <compound>
CCC(=O)O[C@]1(C(=O)CO)[C@@H](C)C[C@H]2[C@@H]3CCC4=CC(=O)C=C[C@]4(C)[C@@]3(F)[C@@H](O)C[C@@]21C [B17P, betamethasone 17-monopropionate]

>  <The autosampler MCM ± SD (24h)>
0.208 ± 0.022 × 10^−9 mol·dm^−3

$$$$
>  <compound>
CCC(=O)OCC(=O)[C@@]1(OC(=O)CC)[C@@H](C)C[C@H]2[C@@H]3CCC4=CC(=O)C=C[C@]4(C)[C@@]3(F)[C@@H](O)C[C@@]21C [BDP, betamethasone dipropionate]

>  <The autosampler MCM ± SD (24h)>
0.220 ± 0.016 × 10^−9 mol·dm^−3

$$$$
>  <compound>
CCC(=O)OCC(=O)[C@@]1(O)[C@@H](C)C[C@H]2[C@@H]3CCC4=CC(=O)C=C[C@]4(C)[C@@]3(F)[C@@H](O)C[C@@]21C [B21P, betamethasone 21-monopropionate]

>  <The autosampler MCM ± SD (24h)>
0.486 ± 0.020 × 10^−9 mol·dm^−3

$$$$

Identify The autosampler MCM ± SD (24h) associated with the compound C[C@H]1C[C@H]2[C@@H]3CCC4=CC(=O)C=C[C@]4(C)[C@@]3(F)[C@@H](O)C[C@]2(C)[C@@]1(O)C(=O)COP(=O)([O-])[O-].[Na+].[Na+] [BSP, betamethasone sodium phosphate]
5.252 ± 0.696 × 10^−9 mol·dm^−3

# return recorded The autosampler MCM ± SD (24h) for entry C[C@H]1C[C@H]2[C@@H]3CCC4=CC(=O)C=C[C@]4(C)[C@@]3(F)[C@@H](O)C[C@]2(C)[C@@]1(O)C(=O)CO
0.584 ± 0.056 × 10^−9 mol·dm^−3
